test system: Wolbachia pipientis; experiment: Anti-Wolbachia Cell-Based Screen; format: functional; parameters: scale not given: in the data most compounds retested in dose-response had high values; conditions: 5 µM
Among all 48,000 compounds or so, about 13,000 (27%) showed an effect of 50% or more. The list shows a part of the results.
A collection of molecules and their measured Percent Effect
// units = %; emit number, no label

CN(Cc1ncnn1C)C1CCN(c2sccc2C#N)C1=O (stereo not drawn) : 7.621

Input "Cc1ccc(-c2nc(CNCCn3cccn3)cs2)o1" . Output Percent Effect: -0.9463

CCC(=O)N1CCCCC1c1nc(O)c2c(n1)CN(C(C)=O)CC2 (stereo not drawn) yielded Percent Effect of 111

# Percent Effect of Cn1c(N)nnc1SC1CCCN(c2ccccc2)C1=O (stereo not drawn) = -9.447

Recorded result, CCCn1cc(C(=O)N2CCCC(c3nccn3CCOC)C2)c(C)n1 (stereo not drawn) , Percent Effect: 0.1706

// Percent Effect lookup, molecule = COc1ccccc1OCCN1CCCC(c2noc(C3CC3)n2)C1 (stereo not drawn) , result: -3.612

Lab book: Percent Effect of Cc1nc(Nc2ncccn2)cc(C2CCCN2Cc2ncc[nH]2)n1 (stereo not drawn) noted as 97.78

###

test system: Wolbachia pipientis; assay: Anti-Wolbachia Cell-Based Screen; type: functional; design: scale not given: in the data most compounds retested in dose-response had high values; conditions: 5 µM
Hit rate of the full screen: of about 48,000 compounds, about 13,000 (27%) showed an effect of 50% or more. The list shows a part of the results.
parameter-measured: Percent Effect (%)
Just the number in %, nothing appended.

CNC(=O)CCc1cc(C2CCCCN2C(C)C)nc(C)n1 (stereo not drawn) : 119
COc1nccnc1N1CCN(Cc2ccc(F)cc2)C(=O)C1 : -14.02
CC1CCC2(CC1)Nc1ccccc1CO2 (stereo not drawn) : 93.91
COC(=O)c1ccc(CNC2CC(=O)N(Cc3cccc(F)c3)C2)cc1 (stereo not drawn) : 2.767
OCC1(O)CCCN(Cc2nnc(-c3ccccc3)o2)CC1 (stereo not drawn) : 97.17
c1ccc2c(c1)COC1(CCCCC1)N2 : 87.69
O=C(O)C(F)(F)F.O=C([C@H]1C[C@@H]2CCN(c3cccc(F)c3)C[C@H]2O1)N1CCCCO1 : 96.52
Cn1cnc2c1CCN(Cc1noc(-c3ccccc3)n1)C2 : 2.267

// Percent Effect lookup, molecule = "COc1ccnc(N2CCN(C(=O)c3cnc(C4CC4)s3)CC2)n1" , result: -14.05

###

Item-by-item account of Percent Effect
tested on: Wolbachia pipientis; assay: Anti-Wolbachia Cell-Based Screen; assay type: functional; set-up: scale not given: in the data most compounds retested in dose-response had high values; conditions: 5 µM
In all, about 48,000 compounds went through this assay and about 13,000 (27%) showed an effect of 50% or more. The list shows a part of the results.
Supply the numeric figure in %, leaving out any unit text.

Check out these entries, answers already filled in.
CC(=O)N1CC2(CCN(Cc3ccc(Cl)cc3)C2)Cc2ccccc21 (stereo not given) : 116.3
COc1cc(CN2CCCC(Nc3cccc(F)c3)C2)cc(OC)c1O (stereo not given) : 11.19
CCC(Nc1nnnn1-c1ccccc1)C(=O)NCc1ccsc1 (stereo not given) : 4.065
CCOc1ccc(N(C)Cc2nnc(C3CC3)o2)cc1 : -1.111

// Percent Effect lookup, compound = CC(CN(C)Cc1cccc(-n2cccn2)c1)C(F)(F)F (stereo not given) , result: 100.7

###

system: Wolbachia pipientis; experiment: Anti-Wolbachia Cell-Based Screen; type: functional; set-up: scale not given: in the data most compounds retested in dose-response had high values; conditions: 5 µM
Among all 48,000 compounds or so, about 13,000 (27%) showed an effect of 50% or more. Some of the results follow.
parameter-measured: Percent Effect (%)
The reply should be a number in %, with the unit left off.

Here is how some compounds turned out for Percent Effect.
CN(C)c1ncc2c(n1)CCCC2NC(=O)c1ccsc1 (centres undefined) : -6.116
CSc1nccc(N2CCC(NCCN3CCOCC3)CC2)n1 : -2.784
Cl.c1cnc2c(c1)cc([C@H]1CCCO1)n2CCN1CCCCC1 : -14.33

In plain terms, CN(C)c1ncc(-c2ccc(C(N)=O)cc2)c(C2CCNC2)n1.Cl (centres undefined) has a documented Percent Effect of 101.4

###

tested on: Wolbachia pipientis; experiment: Anti-Wolbachia Cell-Based Screen; type: functional; set-up: scale not given: in the data most compounds retested in dose-response had high values; details: 5 µM
Hit rate of the full screen: of about 48,000 compounds, about 13,000 (27%) showed an effect of 50% or more. This is one part of the list.
Percent Effect listing for selected compounds.
Supply the numeric figure in %, leaving out any unit text.

O=C(c1ccc(OCC2CC2)cc1)N1CCOCC1c1ncon1 (stereo unspecified) : -1.778
Cc1cccc(CN2CCN(Cc3ccccc3)CC(O)C2)n1 (stereo unspecified) : -8.122
CCn1ccnc1C1CCN(Cc2cccc(C)n2)CC1 : -3.832
CN(Cc1ccc([S+](C)[O-])cc1)c1ccccn1 (stereo unspecified) : -21.98
O=C(CSC1CCCC1)N1CCN(c2ccc(-n3cncn3)nn2)CC1 : 20.49

Below: the item to evaluate.
The compound identified as Cc1cccc(CN2CCCC(c3nccs3)C2)n1 (stereo unspecified) registered its Percent Effect at 160.1

###

test system: Wolbachia pipientis; experiment: Anti-Wolbachia Cell-Based Screen; type: functional; parameters: scale not given: in the data most compounds retested in dose-response had high values; conditions: 5 µM
The whole screen tested about 48,000 compounds, of which about 13,000 (27%) showed an effect of 50% or more. This is one part of the list.
parameter-measured: Percent Effect (%)
Please give a number only; it is taken to be in %.

CO[C@H]1CN(C(C)C)C[C@@H]1NC(=O)c1cc(COc2ccccc2)[nH]n1 : -19.38
FC1(F)CCN(Cc2cccnc2)CC12CCN(c1cnccn1)C2.O=C(O)C(F)(F)F.O=C(O)C(F)(F)F.O=C(O)C(F)(F)F (stereo not given) : 109.7
O=C(O)C(F)(F)F.OCCN1CCC(F)(F)C2(CCN(c3cnccn3)C2)C1 (stereo not given) : 101.7

Record CC(C)(C)c1cn(CC2CCCN(c3cnc4ccccc4n3)C2)nn1 (stereo not given) , field Percent Effect: 0.2574

Measured Percent Effect of CCCC1C=CCN1C(=O)c1cc(COc2ccccc2)[nH]n1 (stereo not given) : 130

Please fill in: Percent Effect reported for "COc1ccccc1OCc1cc(C(=O)N2C[C@@H](C)O[C@@H](C)C2)n[nH]1" = -20.33

Item: O=C(c1cc(COc2ccc3c(c2)OCO3)[nH]n1)N1CC=CC1CO (stereo not given) | Percent Effect: -1.873

GET /value?item= "c1ccc(Oc2nccc3occc23)c(CN2CCCCC2)c1" &field=Percent Effect returns -8.744

In plain terms, CCCc1cc(N2CCCC2Cn2nc(C)cc2C)n2ncnc2n1 (stereo not given) has a documented Percent Effect of -3.923

Lab note: measured Percent Effect of COc1ccccc1OCc1cc(C(=O)N2CCC(NC(C)=O)C2)n[nH]1 (stereo not given) was -14.62

###

test system: Wolbachia pipientis; assay: Anti-Wolbachia Cell-Based Screen; format: functional; parameters: scale not given: in the data most compounds retested in dose-response had high values; settings: 5 µM
Out of some 48,000 compounds screened, about 13,000 (27%) showed an effect of 50% or more. The list shows a part of the results.
parameter-measured: Percent Effect (%)
Record the value in %, omitting the unit from your answer.

CNC(=O)C1(c2cnccn2)CCCN1C(=O)c1ccc(OC)cc1 (stereo unspecified) : 106.6

GET /value?item= CC(C(=O)N1CCc2ccccc2C1)n1cc(Br)cn1 (stereo unspecified) &field=Percent Effect returns 4.145

Lab book: Percent Effect of "CCOc1cccc(NC(=O)c2cc(C)on2)n1" noted as 91.67

Per the records, this molecule ( O=C(NC1CCC(O)CC1)c1cnc2c(cnn2C2CCCC2)c1 (stereo unspecified) ) has Percent Effect equal to -3.379

Item: "NC(=O)CN1CC2(CCC1=O)CCN(Cc1ccc(Cl)c(F)c1)CC2" | Percent Effect: 13.87

For "COc1ccncc1NC(=O)C1(c2ccc(F)cc2)CCC1" the molecule record lists Percent Effect as -2.782

What the record says about Cc1cccc(N2CCN(CCNC(=O)C(C)n3cncn3)CC2)c1 (stereo unspecified) : Percent Effect is 8.571

In plain terms, Cc1cccc(CNC2CCCc3c2cnn3C)c1.Cl (stereo unspecified) has a documented Percent Effect of 0.5584

For "Cc1ccc(OC2(C(=O)O)CCN(C(=O)c3cccc(F)c3)CC2)cn1" the molecule record lists Percent Effect as 1.243

For "CN(CC(N)=O)CC(=O)N(C1=CCCCC1)C1CC1" the molecule record lists Percent Effect as -2.779

Entry "CCc1nc(CNC(=O)Nc2ccc(C(=O)NC)cc2C)cs1" , Percent Effect reported as -1.988

Reported Percent Effect ( "O=C(NCc1nn(-c2ccccc2)c2c1CCC2)N1CCSCC1" ) = 9.143

Percent Effect for "CN(Cc1ccco1)c1ccc(-c2nccn2C)nn1" is -4.631

// Percent Effect value for CC(C)C(=O)N1CCCN(C(=O)NC2CCc3ccccc3C2)CC1 (stereo unspecified) : 16.47

FYI, the data here is from ChEMBL document CHEMBL3988442.
